MEASURED_TARGET: thromboxane A2 synthase (Oryctolagus cuniculus)
Sequence (G1TAZ9 1-530): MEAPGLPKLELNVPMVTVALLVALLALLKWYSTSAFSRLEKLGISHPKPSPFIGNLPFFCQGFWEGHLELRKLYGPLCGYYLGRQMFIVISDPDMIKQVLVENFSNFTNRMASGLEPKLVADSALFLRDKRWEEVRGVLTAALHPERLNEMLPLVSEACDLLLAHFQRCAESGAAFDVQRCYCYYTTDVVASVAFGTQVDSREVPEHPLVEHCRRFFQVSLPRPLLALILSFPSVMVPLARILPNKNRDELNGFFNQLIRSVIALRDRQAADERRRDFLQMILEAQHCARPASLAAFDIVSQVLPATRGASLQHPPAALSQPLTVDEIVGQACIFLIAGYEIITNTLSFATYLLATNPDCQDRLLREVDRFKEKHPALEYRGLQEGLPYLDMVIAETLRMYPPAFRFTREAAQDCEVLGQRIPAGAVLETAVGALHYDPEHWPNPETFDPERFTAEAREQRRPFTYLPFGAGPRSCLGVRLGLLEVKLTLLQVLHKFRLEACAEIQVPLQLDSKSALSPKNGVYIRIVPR
ASSAY_COMMENT: Thromboxane A2 synthase inhibition, TXB2 radioimmunoassay (194000)
Assay type: biochemical, rabbit
CONDITION_NOTES: reference compound, concurrent; read-out: Concurrent IC50, Thromboxane Synthetase
REPORTED_PROPERTY: IC50 (nM)
Reply numerically in nM, unit not repeated.

-- ask Using the record for O=C(O)c1ccc(OCCn2ccnc2)cc1 [Dazoxiben, reference compound] , report its IC50.
-- reply 61

Where do the numbers come from? From patent US20040138315A1.
